Quick reference for Kd among some binders
# SYSTEM TESTED: C/EBPβ bZIP (human, UniProt P17676 259-336)
# Sequence (P17676 259-336): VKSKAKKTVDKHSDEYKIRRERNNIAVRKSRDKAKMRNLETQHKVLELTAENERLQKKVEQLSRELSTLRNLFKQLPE
# ASSAY COMMENT: ITC; ITC: 20 mM Tris pH 7.5, 150 mM NaCl, 25 °C; EMSA: same buffer, 4 °C, 6% native gel in 0.5x TBE
# CONDITION SUMMARY: protein: recombinant; tags: His6-SUMO removed by TEV; chain copies: 2; blunt

[
  {
    "BINDER": "TTGCGCAA (dsDNA) DNA 1: CATTGCGCAATG DNA 2: CATTGCGCAATG",
    "Kd / nM": 69
  },
  {
    "BINDER": "TTACGTAA (dsDNA) DNA 1: CATTACGTAATG DNA 2: CATTACGTAATG",
    "Kd / nM": 18
  }
]

Cited source: paper PMC10941009
